assay: refractive index (Na D-line) (dimensionless); conditions: 303.15 K; 101.33 kPa; Liquid; Standard Abbe refractometry
Value Kind: refractive index
Simply state the number, no unit and no words.

CC(C)O = 1.3741
CCO = 1.358
CCC(C)O (configuration not stated) = 1.394
CCCCO = 1.3962
CO = 1.3255
OC1CCCCC1 = 1.4632

Now, please, on to the next compound.
Exercise: Would you kindly share the measured refractive index for CCCO ?
Solution: 1.3821

----------
conditions: 303.15 K; 101.33 kPa; Liquid; Vibrating tube method
± gives the expanded uncertainty stated by the source.
Value Kind: mass density
Write the numeric value and append its unit.

CCCCO = 801.98 ± 0.15 kg/m3
CCO = 780.82 ± 0.15 kg/m3
CCC(C)O (configuration not stated) = 798.58 ± 0.24 kg/m3
OC1CCCCC1 = 941.36 ± 0.23 kg/m3
CO = 781.87 ± 0.15 kg/m3
CC(C)O = 776.71 ± 0.17 kg/m3

Now, please, on to the next compound.
Exercise: Would you kindly share the measured mass density for CCCO ?
Solution: 795.53 ± 0.15 kg/m3
